measurementTarget: CYP2D6 (Homo sapiens, UniProt P10635)
Sequence (P10635 whole entry): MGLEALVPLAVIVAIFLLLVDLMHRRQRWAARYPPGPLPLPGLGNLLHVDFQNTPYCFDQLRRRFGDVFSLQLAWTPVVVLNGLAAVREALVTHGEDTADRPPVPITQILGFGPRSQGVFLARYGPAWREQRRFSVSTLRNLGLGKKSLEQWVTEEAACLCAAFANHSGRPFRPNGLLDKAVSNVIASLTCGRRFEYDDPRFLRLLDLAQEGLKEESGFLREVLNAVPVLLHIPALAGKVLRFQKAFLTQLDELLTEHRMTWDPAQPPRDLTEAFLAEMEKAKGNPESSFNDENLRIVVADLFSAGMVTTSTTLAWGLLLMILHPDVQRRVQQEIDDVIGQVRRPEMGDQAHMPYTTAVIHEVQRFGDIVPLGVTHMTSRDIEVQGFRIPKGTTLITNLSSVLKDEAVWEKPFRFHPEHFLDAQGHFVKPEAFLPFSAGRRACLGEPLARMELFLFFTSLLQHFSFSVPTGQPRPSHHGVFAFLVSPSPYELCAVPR
test: in vitro
testSettings: recombinant enzyme, pH 7.4
half-life values by entry
Write it as a number; the unit min goes unstated.

Previously resolved entries follow.
compound	measurementTarget	unitsText	half-life
COc1ccccc1OCCNCC(O)COc1cccc2[nH]c3ccccc3c12 (stereo not drawn) [Carvedilol, reference compound]	CYP2D6 (Homo sapiens, UniProt P10635)	min	2
CN(C)CCc1c[nH]c2ccccc12 [SPL026, N,N-dimethyltryptamine, reference compound]	CYP2D6 (Homo sapiens, UniProt P10635)	min	9

In the following, a different compound is considered.
Find half-life (CYP2D6 (Homo sapiens, UniProt P10635)) for the entry COc1ccc2c(c1)[C@]13CCCC[C@@H]1[C@H](C2)N(C)CC3 3

---

System: human (mixed gender) hepatocytes
test: In vitro intrinsic clearance in human hepatocytes with and without MAO-A/B inhibitor combination (first experiment)
testSettings: human hepatocytes, without MAO-A/B inhibitor combination (Table 5)
Half-life, without inhibitors values by entry
Write it as a number; the unit h goes unstated.

Previously resolved entries follow.
molecule	Half-life, without inhibitors / h
NCCc1c[nH]c2ccc(O)cc12 [Serotonin, reference compound]	0.55
CN(C)CCc1c[nH]c2ccccc12 [SPL026, N,N-dimethyltryptamine, reference compound]	1.54
NCc1ccccc1 [Benzylamine, reference compound]	1.27

In the following, a different molecule is considered.
For the molecule shown here, [2H]C([2H])(Cc1c[nH]c2ccccc12)N(C)C [SPL028vi] , give the reported Half-life, without inhibitors. 1.584

---

Intrinsic clearance, with inhibitors values by entry
Test system: human (mixed gender) hepatocytes
test: In vitro intrinsic clearance in human hepatocytes with and without MAO-A/B inhibitor combination (first experiment)
testSettings: human hepatocytes, with 100 nM clorgyline + 100 nM deprenyl/selegiline (Table 3)
Write it as a number; the unit μL/min/million cells goes unstated.

Previously resolved entries follow.
compound	Intrinsic clearance, with inhibitors (μL/min/million cells)
[2H]C([2H])(Cc1c[nH]c2ccccc12)N(C)C [SPL028ii]	8.78
[2H]C([2H])(Cc1c[nH]c2ccccc12)N(C)C [SPL028iv]	7.46
[2H]C([2H])(Cc1c[nH]c2ccccc12)N(C)C [SPL028vi]	10.79

In the following, a different compound is considered.
Find Intrinsic clearance, with inhibitors (human (mixed gender) hepatocytes) for the entry [2H]C([2H])(Cc1c[nH]c2ccccc12)N(C)C [SPL028i] 7.50

---

measurementTarget: CYP1A2 (Homo sapiens, UniProt P05177)
Sequence (P05177 1-516): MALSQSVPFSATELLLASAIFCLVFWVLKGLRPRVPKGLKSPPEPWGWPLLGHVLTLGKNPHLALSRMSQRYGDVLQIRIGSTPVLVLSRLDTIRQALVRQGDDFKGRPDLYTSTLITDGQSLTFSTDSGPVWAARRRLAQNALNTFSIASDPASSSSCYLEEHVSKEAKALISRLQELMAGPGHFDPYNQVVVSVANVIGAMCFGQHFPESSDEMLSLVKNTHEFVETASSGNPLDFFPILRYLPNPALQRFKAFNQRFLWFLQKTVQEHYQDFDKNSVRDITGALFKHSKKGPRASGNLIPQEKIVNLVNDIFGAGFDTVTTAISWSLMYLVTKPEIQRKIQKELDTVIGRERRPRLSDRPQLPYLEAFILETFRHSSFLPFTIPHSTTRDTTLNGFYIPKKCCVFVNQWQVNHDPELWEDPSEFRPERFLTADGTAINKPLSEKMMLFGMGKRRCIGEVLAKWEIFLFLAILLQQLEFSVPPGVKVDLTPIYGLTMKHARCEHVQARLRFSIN
test: in vitro
testSettings: human, recombinant enzyme, pH 7.4
half-life values by entry
Write it as a number; the unit min goes unstated.

molecule	measurementTarget	numericReadout
Nc1c2c(nc3ccccc13)CCCC2 [Tacrine, reference compound]	CYP1A2 (Homo sapiens, UniProt P05177)	37

For the molecule shown here, COc1ccccc1OCCNCC(O)COc1cccc2[nH]c3ccccc3c12 (stereo not drawn) [Carvedilol, reference compound] , give the reported half-life. 30
